Attribution: patent US10519105B2

test system: bladder extracted from rat; assay: Relaxing action on bladder extracted from rat (carbachol-induced contraction, Magnus tube); details: rat bladder strip, carbachol 1 μM contraction; read-out: IC20 (percent change in tension -20%)

- Compound: "O=C(NCc1ccc(F)cc1)Nc1c(Cl)cc2c(c1Cl)CCC2(O)C(F)(F)F (stereo not shown)"
  IC20: "10 nM"
- Compound: "C[C@@H](NC(=O)Nc1c(Cl)cc2c(c1Cl)CCC2(O)C(F)(F)F)c1ccc(F)cc1 (stereo partly shown)"
  IC20: "30 nM"
- Compound: "O=C(NCc1ccc(C(F)(F)F)cn1)Nc1c(Cl)cc2c(c1Cl)CCC2(O)C(F)(F)F (stereo not shown)"
  IC20: "10 nM"
- Compound: "CC1(O)c2cc(Cl)c(NC(=O)NCc3ccc(F)cc3)c(Cl)c2CC1(F)F (stereo not shown)"
  IC20: "100 nM"

---

target: Human KCNQ2/3 channel (Homo sapiens, UniProt O43525+O43526); assay: Opening action with respect to KCNQ2/3 channel by depolarization stimulation (thallium influx, FLIPR); conditions: concentration giving 50% of the maximum reaction of retigabine (10 μM); human KCNQ2/3 expressing CHO-DHFR- cells; read-out: KCNQ2/3 ECrtg50
Reported values of log10(EC50) for individual entries
Measurement Name: log10(EC50) (log10 of the value in nM)

- Molecule: "CC1(O)CCc2c1cc(Cl)c(NC(=O)NCc1cccc(C(F)(F)F)c1)c2Cl (stereo not drawn)"
  Recorded Result: 1.60
- Molecule: "O=C(NCc1cccc(N2CCCCC2)n1)Nc1c(Cl)cc2c(c1Cl)CCC2(O)C(F)(F)F (stereo not drawn)"
  Recorded Result: 1.70
- Molecule: "C[C@@H](NC(=O)Nc1c(Cl)cc2c(c1Cl)CC[C@]2(O)C(F)(F)F)c1ccc(F)cc1"
  Recorded Result: 0.70
- Molecule: "O=C(NCC1CC1)Nc1c(Cl)cc2c(c1Cl)CCC2(O)C(F)(F)F (stereo not drawn)"
  Recorded Result: 1.78
- Molecule: "CC1(CNC(=O)Nc2c(Cl)cc3c(c2Cl)CCC3(O)C(F)(F)F)CCOCC1 (stereo not drawn)"
  Recorded Result: 2.30
- Molecule: "CC1(O)CCc2c1cc(Cl)c(NC(=O)NCCOC1CCCCC1)c2Cl (stereo not drawn)"
  Recorded Result: 2.60

---

Entries and their Residual ratio values follow.
experiment: Stability in human liver microsomes; format: in vitro ADME; conditions: human liver microsomes 0.5 mg/mL, NADPH, 5 μM, 37° C., 15 minutes

- Compound: "C[C@@H](NC(=O)Nc1c(Cl)cc2c(c1Cl)CC[C@]2(O)C(F)(F)F)c1ccc(F)cc1"
  Value Unit: "%"
  Residual ratio: 95
- Compound: "O=C(NCC1CC1)Nc1c(Cl)cc2c(c1Cl)CCC2(O)C(F)(F)F (stereo not drawn)"
  Value Unit: "%"
  Residual ratio: 100
- Compound: "CC1(O)c2cc(Cl)c(NC(=O)NCc3ccc(F)cc3)c(Cl)c2CC1(F)F (stereo not drawn)"
  Value Unit: "%"
  Residual ratio: 90
- Compound: "O=C(NCc1ccc(C(F)(F)F)cn1)Nc1c(Cl)cc2c(c1Cl)CCC2(O)C(F)(F)F (stereo not drawn)"
  Value Unit: "%"
  Residual ratio: 77
- Compound: "CC1(O)CCc2c1cc(Cl)c(NC(=O)NCc1ccc(C(F)(F)F)cn1)c2Cl (single isomer, unassigned)"
  Value Unit: "%"
  Residual ratio: 98
- Compound: "Cc1cc(CNC(=O)Nc2c(Cl)cc3c(c2Cl)CCC3(O)C(F)(F)F)no1 (stereo not drawn)"
  Value Unit: "%"
  Residual ratio: 100
- Compound: "CC1(C)CC(C)(O)c2cc(Cl)c(NC(=O)NCc3ccc(C(F)(F)F)cn3)c(Cl)c21 (stereo not drawn)"
  Value Unit: "%"
  Residual ratio: 81
- Compound: "CC1(O)CCc2c1cc(Cl)c(NC(=O)OCc1ccc(F)cc1)c2Cl (stereo not drawn)"
  Value Unit: "%"
  Residual ratio: 83
- Compound: "O=C(NCc1ccc(F)cc1)Nc1c(Cl)cc2c(c1Cl)CCC2(O)C(F)(F)F (stereo not drawn)"
  Value Unit: "%"
  Residual ratio: 94
